- experimental system: (α4)3(β2)2 nAChR (Homo sapiens, UniProt P17787+P43681)
- Construct: expressed in transfected cells; host or cells: Xenopus laevis oocytes injected with cRNA, 8:1 α4:β2
- Sequence (P43681 27-627): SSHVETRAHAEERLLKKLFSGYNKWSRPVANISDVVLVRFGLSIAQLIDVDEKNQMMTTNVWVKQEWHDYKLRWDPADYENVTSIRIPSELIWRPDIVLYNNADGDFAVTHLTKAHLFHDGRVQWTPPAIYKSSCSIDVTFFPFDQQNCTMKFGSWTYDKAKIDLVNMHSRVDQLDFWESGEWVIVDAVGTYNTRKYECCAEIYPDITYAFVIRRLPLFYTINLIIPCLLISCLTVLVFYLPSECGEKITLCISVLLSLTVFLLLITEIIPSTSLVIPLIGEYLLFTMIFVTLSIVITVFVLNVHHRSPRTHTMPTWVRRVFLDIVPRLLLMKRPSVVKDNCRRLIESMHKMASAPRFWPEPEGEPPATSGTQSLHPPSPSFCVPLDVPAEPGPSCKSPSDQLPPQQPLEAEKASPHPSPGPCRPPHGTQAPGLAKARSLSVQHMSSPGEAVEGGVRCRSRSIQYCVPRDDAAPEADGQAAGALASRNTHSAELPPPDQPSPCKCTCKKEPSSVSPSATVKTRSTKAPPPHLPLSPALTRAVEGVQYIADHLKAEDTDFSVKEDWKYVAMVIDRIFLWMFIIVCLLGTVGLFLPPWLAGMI
- Sequence (P17787 26-502): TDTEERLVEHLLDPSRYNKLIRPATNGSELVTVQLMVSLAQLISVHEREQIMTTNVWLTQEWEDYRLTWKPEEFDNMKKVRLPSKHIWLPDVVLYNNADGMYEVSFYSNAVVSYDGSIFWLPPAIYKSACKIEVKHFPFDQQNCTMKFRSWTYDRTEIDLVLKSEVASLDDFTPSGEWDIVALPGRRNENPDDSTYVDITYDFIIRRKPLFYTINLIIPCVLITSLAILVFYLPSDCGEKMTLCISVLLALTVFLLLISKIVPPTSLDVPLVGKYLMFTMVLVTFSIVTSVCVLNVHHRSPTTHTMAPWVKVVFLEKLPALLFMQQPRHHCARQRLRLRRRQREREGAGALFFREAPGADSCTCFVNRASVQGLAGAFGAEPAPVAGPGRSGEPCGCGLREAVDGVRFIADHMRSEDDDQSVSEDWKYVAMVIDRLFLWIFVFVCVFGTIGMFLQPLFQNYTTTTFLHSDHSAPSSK
- protocol notes: Two-electrode voltage-clamp whole-cell currents, Xenopus oocytes expressing WT (α4)3(β2)2 nAChR
- Assay type: cell-based
- condition info: receptors activated by 1 μM cytisine; read-out: EC50 for potentiation
- Experimental: Oocytes-positive female Xenopus laevis were purchased from NASCO, and all procedures were performed according to an animal use protocol approved by the Institutional Animals Care and Use Committee of The University of Texas Health Science Center at Tyler. […]
pEC50: −log10 of the molar value.
quantity measured: pEC50

[[record]]
smiles_text = "Cc1c(-c2cc(-c3ccccc3Cl)no2)cnn1C1CCNCC1"
experimental_system = "(α4)3(β2)2 nAChR (Homo sapiens, UniProt P17787+P43681)"
measured_number = 6.47

